# Measured on: Cytochrome P450 2C19 (Homo sapiens)
# Sequence (P33261 whole entry): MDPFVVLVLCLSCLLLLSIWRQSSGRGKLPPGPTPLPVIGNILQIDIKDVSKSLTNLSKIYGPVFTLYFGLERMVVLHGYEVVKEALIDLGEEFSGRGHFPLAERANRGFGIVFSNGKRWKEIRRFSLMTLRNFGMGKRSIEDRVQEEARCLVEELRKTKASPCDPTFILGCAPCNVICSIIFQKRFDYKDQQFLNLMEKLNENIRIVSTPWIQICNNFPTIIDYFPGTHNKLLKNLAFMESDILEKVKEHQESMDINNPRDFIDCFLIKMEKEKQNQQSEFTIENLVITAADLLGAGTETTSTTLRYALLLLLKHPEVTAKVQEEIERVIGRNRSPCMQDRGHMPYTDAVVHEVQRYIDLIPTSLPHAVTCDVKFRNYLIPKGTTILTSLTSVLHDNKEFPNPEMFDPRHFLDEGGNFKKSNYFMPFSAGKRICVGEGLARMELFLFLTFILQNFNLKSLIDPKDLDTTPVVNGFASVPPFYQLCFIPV
Readout kind: IC50

- [2H]C([2H])([2H])NC(=O)c1nnc(NC(=O)C2CC2)cc1Nc1cccc(-c2ncn(C)n2)c1OC: > 40 µM

###

# Measured on: hERG (KCNH2) (Homo sapiens)
# Sequence (Q12809 whole entry): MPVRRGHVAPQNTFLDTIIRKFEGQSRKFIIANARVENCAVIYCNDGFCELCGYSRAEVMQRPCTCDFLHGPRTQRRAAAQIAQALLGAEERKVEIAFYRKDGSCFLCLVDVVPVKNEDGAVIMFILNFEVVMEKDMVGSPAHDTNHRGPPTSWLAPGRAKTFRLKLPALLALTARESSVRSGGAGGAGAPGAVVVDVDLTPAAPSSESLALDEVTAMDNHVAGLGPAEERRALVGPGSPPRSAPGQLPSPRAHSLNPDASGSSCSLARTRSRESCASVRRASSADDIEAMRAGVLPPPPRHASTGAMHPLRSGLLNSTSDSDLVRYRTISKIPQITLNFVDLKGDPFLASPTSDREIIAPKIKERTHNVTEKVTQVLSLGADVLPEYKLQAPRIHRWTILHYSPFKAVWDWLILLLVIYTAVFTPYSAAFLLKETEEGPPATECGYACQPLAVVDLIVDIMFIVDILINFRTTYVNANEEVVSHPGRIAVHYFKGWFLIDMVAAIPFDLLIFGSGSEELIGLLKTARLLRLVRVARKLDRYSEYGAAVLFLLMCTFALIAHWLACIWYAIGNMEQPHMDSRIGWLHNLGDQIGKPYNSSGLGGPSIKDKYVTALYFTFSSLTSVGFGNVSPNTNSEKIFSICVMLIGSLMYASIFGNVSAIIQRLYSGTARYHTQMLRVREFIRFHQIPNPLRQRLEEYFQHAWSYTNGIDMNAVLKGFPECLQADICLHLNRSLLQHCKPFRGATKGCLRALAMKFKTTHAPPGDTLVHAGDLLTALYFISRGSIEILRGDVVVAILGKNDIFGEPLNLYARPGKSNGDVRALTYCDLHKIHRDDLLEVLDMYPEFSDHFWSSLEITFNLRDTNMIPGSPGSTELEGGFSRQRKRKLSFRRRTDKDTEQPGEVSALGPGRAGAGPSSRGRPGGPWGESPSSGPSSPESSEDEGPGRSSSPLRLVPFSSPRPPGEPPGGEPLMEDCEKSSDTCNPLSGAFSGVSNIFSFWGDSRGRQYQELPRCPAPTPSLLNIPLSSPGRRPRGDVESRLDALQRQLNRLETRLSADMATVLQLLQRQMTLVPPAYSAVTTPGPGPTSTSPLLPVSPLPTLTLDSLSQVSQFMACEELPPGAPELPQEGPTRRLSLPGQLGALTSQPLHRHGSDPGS
# Measurement notes: Inhibition of human ERG at 10 uM by patch-clamp assay relative to control
Readout kind: inhibition at 10 µM (%)

• [2H]C([2H])([2H])NC(=O)c1nnc(NC(=O)C2CC2)cc1Nc1cccc(-c2ncn(C)n2)c1OC = 26

###

# Measurement notes: Half life in dog at 2 mg/kg, iv
# Assay type: ADME, organism-based, Canis lupus familiaris
# Assay context: in vivo
Readout kind: half-life

- [2H]C([2H])([2H])NC(=O)c1nnc(NC(=O)C2CC2)cc1Nc1cccc(-c2ncn(C)n2)c1OC: 4.6 h

###

# Measured on: JAK1/TYK2 (Homo sapiens, UniProt P23458+P29597)
# Sequence (P23458 whole entry, one chain of several): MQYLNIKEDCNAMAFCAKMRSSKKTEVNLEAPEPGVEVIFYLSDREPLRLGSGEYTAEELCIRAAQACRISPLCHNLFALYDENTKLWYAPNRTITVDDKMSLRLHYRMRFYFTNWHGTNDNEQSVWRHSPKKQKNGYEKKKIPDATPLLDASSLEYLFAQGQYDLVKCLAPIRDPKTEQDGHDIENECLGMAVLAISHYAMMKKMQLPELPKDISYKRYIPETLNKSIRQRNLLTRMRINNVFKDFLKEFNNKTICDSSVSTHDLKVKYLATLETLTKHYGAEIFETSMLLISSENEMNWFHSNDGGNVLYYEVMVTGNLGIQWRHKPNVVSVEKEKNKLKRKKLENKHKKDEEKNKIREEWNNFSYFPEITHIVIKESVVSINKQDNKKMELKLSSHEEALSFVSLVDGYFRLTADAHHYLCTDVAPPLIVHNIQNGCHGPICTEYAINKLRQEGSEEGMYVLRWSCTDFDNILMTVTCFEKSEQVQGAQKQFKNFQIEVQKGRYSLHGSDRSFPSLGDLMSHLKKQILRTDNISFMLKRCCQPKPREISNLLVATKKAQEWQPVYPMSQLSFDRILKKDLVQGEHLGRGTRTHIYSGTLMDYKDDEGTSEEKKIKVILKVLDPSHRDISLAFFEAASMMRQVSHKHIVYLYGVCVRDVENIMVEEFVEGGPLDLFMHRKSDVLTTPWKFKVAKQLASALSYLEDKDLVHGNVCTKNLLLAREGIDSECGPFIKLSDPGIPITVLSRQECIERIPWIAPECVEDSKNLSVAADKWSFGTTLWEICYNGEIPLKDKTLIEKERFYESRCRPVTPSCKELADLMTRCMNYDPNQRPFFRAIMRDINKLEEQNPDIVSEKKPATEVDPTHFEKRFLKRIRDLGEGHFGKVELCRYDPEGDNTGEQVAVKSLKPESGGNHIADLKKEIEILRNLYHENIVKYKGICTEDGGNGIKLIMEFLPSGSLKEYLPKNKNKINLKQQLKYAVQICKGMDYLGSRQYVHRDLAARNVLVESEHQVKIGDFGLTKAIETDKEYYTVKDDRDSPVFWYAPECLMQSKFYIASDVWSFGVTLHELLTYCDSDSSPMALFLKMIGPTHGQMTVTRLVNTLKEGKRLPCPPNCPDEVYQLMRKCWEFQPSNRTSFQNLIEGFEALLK
# Measurement notes: Inhibition of JAK1/TYK2 in human Kit225 T cells assessed as inhibition of STAT phosphorylation by luciferase reporter assay
pIC50: −log10 of the molar value.
Readout kind: pIC50

• CNC(=O)c1ccc(Nc2cc(Nc3ccc(F)cn3)ncc2C(=O)NC)c(OC)c1 = 6.31
• CNC(=O)c1cnc(NC(=O)C2CC2)cc1Nc1cccc(-c2ncn(C)n2)c1OC = 7.85
• CNC(=O)c1cccc(Nc2cc(Nc3ccc(F)cn3)ncc2C(=O)NC)c1 = 5.12
• CNC(=O)c1cnc(Nc2cc(C)nc(C)n2)cc1Nc1cccc(-c2ncn(C)n2)c1OC = 7.92
• CNC(=O)c1cnc(Nc2cc(C)c(F)cn2)cc1Nc1cccc(C(=O)NCC2CC2)c1OC = 7.19
• [2H]C([2H])([2H])NC(=O)c1cnc(NC(=O)C2CC2)cc1Nc1cccc(-c2ncn(C)n2)c1OC = 8.10
• CNC(=O)c1cnc(Nc2cc(C)c(F)cn2)cc1Nc1cccc(-c2n[nH]c(C)n2)c1OC = 8.15
• CNC(=O)c1cnc(Nc2cc(C)c(F)cn2)cc1Nc1cccc(-c2nncn2C)c1OC = 7.80
• CNC(=O)c1cnc(Nc2ccc(F)cn2)cc1Nc1cccc(C(N)=O)c1OC = 7.20
• CNC(=O)c1cnc(Nc2cc(C)c(F)cn2)cc1Nc1cccc(C(=O)NCCO)c1OC = 6.66
• CNC(=O)c1cnc(Nc2cc(C)c(F)cn2)cc1Nc1cccc(-c2nnco2)c1OC = 7.82
• CNC(=O)c1cnc(Nc2cc(C)c(F)cn2)cc1Nc1cccc(C(=O)NCCN2CCOCC2)c1OC = 7.29
• CNC(=O)c1cnc(Nc2ccc(C#N)cn2)cc1Nc1cccc(-c2ncn(C)n2)c1OC = 8.22
• CNC(=O)c1cnc(Nc2cc(C)c(F)cn2)cc1Nc1cccc(-c2ccn(C)n2)c1OC = 8.05
• CNC(=O)c1cnc(Nc2ccc(C(F)(F)F)cn2)cc1Nc1cccc(-c2ncn(C)n2)c1OC = 7.92
• CNC(=O)c1cnc(Nc2cc(C)c(F)cn2)cc1Nc1cccc(-c2nc[nH]n2)c1OC = 8.10
• CNC(=O)c1cnc(Nc2cc(C)c(F)cn2)cc1Nc1cccc(C(=O)NCc2ccccn2)c1OC = 7.66
• CCNC(=O)c1cccc(Nc2cc(Nc3cc(C)c(F)cn3)ncc2C(=O)NC)c1OC = 7.55

###

# Measured on: JAK1/TYK2 (Homo sapiens, UniProt P23458+P29597)
# Measurement notes: Inhibition of JAK1/TYK2 in human Kit225 T cells assessed as inhibition of STAT phosphorylation by luciferase reporter assay
hey, just use t if measured IC50 is less than 30 nM, otherwise f

* CNC(=O)c1cnc(Nc2cc(C)c(F)cn2)cc1Nc1cccc(-c2ccnn2C)c1OC | f
* CNC(=O)c1cnc(Nc2cc(C)c(F)cn2)cc1Nc1cccc(-c2ncn(C)n2)c1OC | t
* CNC(=O)c1cnc(Nc2ccc(F)cn2)cc1Nc1cccc(C(=O)NC)c1OC | f
* CNC(=O)c1cnc(Nc2cc(C)c(F)cn2)cc1Nc1cccc(-c2ncnn2C)c1OC | t
* CNC(=O)c1cnc(Nc2cc(C)c(F)cn2)cc1Nc1cccc(C(=O)NC)c1OC | f
* CNC(=O)c1cnc(Nc2cc(C)c(F)cn2)cc1Nc1cccc(C(=O)N(C)C)c1OC | f
* CNC(=O)c1cnc(Nc2ccc(F)cn2)cc1Nc1cccc(C#N)c1OC | f
* CNC(=O)c1cnc(Nc2cc(C)c(F)cn2)cc1Nc1cccc(-c2nnc(C)o2)c1OC | t
* CNC(=O)c1cnc(Nc2ccc(F)cn2)cc1Nc1ccc(C(N)=O)cc1OC | f

###

# Measurement notes: Oral bioavailability in cynomolgus monkey at 10 mg/kg
# Format: ADME, organism-based, Macaca fascicularis
# Assay context: in vivo
Readout kind: bioavailability (%)

* [2H]C([2H])([2H])NC(=O)c1nnc(NC(=O)C2CC2)cc1Nc1cccc(-c2ncn(C)n2)c1OC | 87

###

# Measured on: Cytochrome P450 3A4 (Homo sapiens)
# Sequence (P08684 whole entry): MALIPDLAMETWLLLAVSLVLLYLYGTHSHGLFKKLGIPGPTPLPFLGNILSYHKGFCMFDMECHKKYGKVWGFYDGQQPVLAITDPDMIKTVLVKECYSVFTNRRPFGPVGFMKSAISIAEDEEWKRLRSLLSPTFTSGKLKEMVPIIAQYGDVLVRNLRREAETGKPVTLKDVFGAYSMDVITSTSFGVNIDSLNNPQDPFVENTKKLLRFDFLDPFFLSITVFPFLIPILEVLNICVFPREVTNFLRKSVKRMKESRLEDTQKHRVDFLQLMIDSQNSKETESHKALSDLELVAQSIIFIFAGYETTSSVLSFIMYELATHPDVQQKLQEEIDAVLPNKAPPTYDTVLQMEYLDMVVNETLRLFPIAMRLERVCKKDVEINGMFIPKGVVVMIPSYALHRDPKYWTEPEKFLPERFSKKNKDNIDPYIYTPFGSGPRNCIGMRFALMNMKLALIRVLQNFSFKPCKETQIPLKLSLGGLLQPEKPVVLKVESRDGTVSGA
Readout kind: IC50

• [2H]C([2H])([2H])NC(=O)c1nnc(NC(=O)C2CC2)cc1Nc1cccc(-c2ncn(C)n2)c1OC [DEUCRAVACITINIB] = > 40 µM

###

Here, each record is paired with measured Papp A→B data.
# Measurement notes: Permeability coefficient, Kp across apical to basolateral side in human Caco2 cells
# Type: ADME, cell-based
# Assay context: Caco-2, read-out: permeability
Readout kind: Papp A→B (×10⁻⁶ cm/s)

• CNC(=O)c1cnc(NC(=O)C2CC2)cc1Nc1cccc(-c2ncn(C)n2)c1OC = 2.3
• CNC(=O)c1cnc(Nc2ccc(C#N)cn2)cc1Nc1cccc(-c2ncn(C)n2)c1OC = 1.8
• CNC(=O)c1cnc(Nc2ccc(C(F)(F)F)cn2)cc1Nc1cccc(-c2ncn(C)n2)c1OC = 1.6
• [2H]C([2H])([2H])NC(=O)c1nnc(NC(=O)C2CC2)cc1Nc1cccc(-c2ncn(C)n2)c1OC [DEUCRAVACITINIB] = 7
• CNC(=O)c1cnc(Nc2ccc(F)cn2)cc1Nc1cccc(C(=O)NC)c1OC = 5

###

# Measurement notes: Half life in cynomolgus monkey at 2 mg/kg, iv
# Assay type: ADME, organism-based, Macaca fascicularis
# Assay context: in vivo
Readout kind: half-life

• [2H]C([2H])([2H])NC(=O)c1nnc(NC(=O)C2CC2)cc1Nc1cccc(-c2ncn(C)n2)c1OC = 5.3 h

###

# Measurement notes: AUC in dog at 10 mg/kg, po
# Format: ADME, organism-based, Canis lupus familiaris
# Assay context: in vivo
Readout kind: AUC

• [2H]C([2H])([2H])NC(=O)c1nnc(NC(=O)C2CC2)cc1Nc1cccc(-c2ncn(C)n2)c1OC = 73.6 µM·h

###

# Measurement notes: Metabolic stability in dog liver microsomes assessed as half life
# Format: ADME, Canis lupus familiaris, Microsome
Readout kind: half-life

• [2H]C([2H])([2H])NC(=O)c1nnc(NC(=O)C2CC2)cc1Nc1cccc(-c2ncn(C)n2)c1OC = > 2 h

###

# Measurement notes: Protein binding in mouse assessed as unbound fraction
# Type: ADME
Readout kind: fraction unbound

- [2H]C([2H])([2H])NC(=O)c1nnc(NC(=O)C2CC2)cc1Nc1cccc(-c2ncn(C)n2)c1OC: 0.15

###

# Measurement notes: Metabolic stability in rat liver microsomes assessed as half life
# Format: ADME, Microsome
Readout kind: half-life

• [2H]C([2H])([2H])NC(=O)c1nnc(NC(=O)C2CC2)cc1Nc1cccc(-c2ncn(C)n2)c1OC [DEUCRAVACITINIB] = > 2 h

###

# Measurement notes: Cmax in dog at 10 mg/kg, po
# Assay type: ADME, organism-based, Canis lupus familiaris
# Set-up: dose 10 mg/kg, route oral
# Assay context: in vivo
Readout kind: Cmax (µM)

• [2H]C([2H])([2H])NC(=O)c1nnc(NC(=O)C2CC2)cc1Nc1cccc(-c2ncn(C)n2)c1OC [DEUCRAVACITINIB] = 6.9

###

# Measurement notes: Oral bioavailability in dog at 10 mg/kg
# Assay type: ADME, organism-based, Canis lupus familiaris
# Assay context: in vivo
Readout kind: bioavailability (%)

* [2H]C([2H])([2H])NC(=O)c1nnc(NC(=O)C2CC2)cc1Nc1cccc(-c2ncn(C)n2)c1OC [DEUCRAVACITINIB] | 128

###

# Measurement notes: Metabolic stability in rabbit liver microsomes assessed as half life
# Type: ADME, Oryctolagus cuniculus, Microsome
Readout kind: half-life

* [2H]C([2H])([2H])NC(=O)c1nnc(NC(=O)C2CC2)cc1Nc1cccc(-c2ncn(C)n2)c1OC | > 2 h

###

# Measured on: Cytochrome P450 1A2 (Homo sapiens)
# Sequence (P05177 whole entry): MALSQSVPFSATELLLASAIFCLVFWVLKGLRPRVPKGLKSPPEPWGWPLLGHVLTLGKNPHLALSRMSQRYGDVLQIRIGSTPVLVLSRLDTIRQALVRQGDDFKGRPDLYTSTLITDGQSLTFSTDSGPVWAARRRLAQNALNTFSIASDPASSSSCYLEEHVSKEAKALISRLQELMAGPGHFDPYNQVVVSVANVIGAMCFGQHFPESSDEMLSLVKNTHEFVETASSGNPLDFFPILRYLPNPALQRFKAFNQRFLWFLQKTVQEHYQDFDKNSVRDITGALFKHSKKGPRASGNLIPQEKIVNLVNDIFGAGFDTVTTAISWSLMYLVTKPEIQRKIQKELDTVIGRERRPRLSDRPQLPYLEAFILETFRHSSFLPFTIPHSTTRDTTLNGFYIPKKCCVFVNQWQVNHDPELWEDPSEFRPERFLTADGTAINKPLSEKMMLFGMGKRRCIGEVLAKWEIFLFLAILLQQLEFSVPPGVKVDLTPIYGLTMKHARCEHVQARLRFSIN
Readout kind: IC50

* [2H]C([2H])([2H])NC(=O)c1nnc(NC(=O)C2CC2)cc1Nc1cccc(-c2ncn(C)n2)c1OC | > 40 µM

###

# Measured on: Non-receptor tyrosine-protein kinase TYK2 (Homo sapiens)
# Sequence (P29597 whole entry): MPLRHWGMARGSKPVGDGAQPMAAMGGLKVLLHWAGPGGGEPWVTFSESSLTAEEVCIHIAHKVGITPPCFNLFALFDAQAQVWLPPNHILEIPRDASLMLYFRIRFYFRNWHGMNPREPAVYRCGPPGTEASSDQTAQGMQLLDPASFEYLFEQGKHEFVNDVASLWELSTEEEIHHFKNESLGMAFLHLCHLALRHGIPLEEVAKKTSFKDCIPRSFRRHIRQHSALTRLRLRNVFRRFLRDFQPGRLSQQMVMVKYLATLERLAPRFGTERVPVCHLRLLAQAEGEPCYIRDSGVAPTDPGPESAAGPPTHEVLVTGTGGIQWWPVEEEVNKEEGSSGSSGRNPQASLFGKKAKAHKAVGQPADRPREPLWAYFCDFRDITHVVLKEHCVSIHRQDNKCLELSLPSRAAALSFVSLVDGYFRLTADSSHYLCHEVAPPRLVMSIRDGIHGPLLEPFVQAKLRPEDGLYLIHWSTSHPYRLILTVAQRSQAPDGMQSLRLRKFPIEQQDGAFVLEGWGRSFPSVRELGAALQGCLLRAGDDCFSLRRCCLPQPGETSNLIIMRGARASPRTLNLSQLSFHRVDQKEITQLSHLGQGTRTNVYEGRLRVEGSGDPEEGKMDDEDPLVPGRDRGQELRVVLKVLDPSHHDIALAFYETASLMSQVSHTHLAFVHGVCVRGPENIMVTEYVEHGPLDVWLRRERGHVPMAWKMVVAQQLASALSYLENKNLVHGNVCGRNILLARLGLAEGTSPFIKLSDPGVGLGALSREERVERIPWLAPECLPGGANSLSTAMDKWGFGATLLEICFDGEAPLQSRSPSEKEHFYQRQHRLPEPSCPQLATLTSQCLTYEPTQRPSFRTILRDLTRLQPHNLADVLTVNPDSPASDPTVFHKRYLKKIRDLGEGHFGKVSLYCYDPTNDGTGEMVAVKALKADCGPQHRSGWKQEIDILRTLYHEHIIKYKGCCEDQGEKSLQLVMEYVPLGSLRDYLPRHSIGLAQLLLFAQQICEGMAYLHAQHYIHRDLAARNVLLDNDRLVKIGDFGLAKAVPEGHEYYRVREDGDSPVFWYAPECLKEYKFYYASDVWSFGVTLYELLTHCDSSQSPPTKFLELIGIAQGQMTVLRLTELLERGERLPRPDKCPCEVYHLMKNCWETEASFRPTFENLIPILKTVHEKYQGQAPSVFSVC
# Measurement notes: Inhibition of TYK2 in human whole blood assessed as decrease in IFNalpha-induced STAT5 phosphorylation preincubated for 1 hr followed by stimulation with IFN-alpha for 15 mins by fluorescence analysis
pIC50: −log10 of the molar value.
Readout kind: pIC50

- CNC(=O)c1cnc(Nc2cc(C)c(F)cn2)cc1Nc1cccc(-c2n[nH]c(C)n2)c1OC: 7.40
- CNC(=O)c1cnc(Nc2cc(C)c(F)cn2)cc1Nc1cccc(-c2ncnn2C)c1OC: 7.06
- CNC(=O)c1cnc(NC(=O)C2CC2)cc1Nc1cccc(-c2ncn(C)n2)c1OC: 7.80
- CNC(=O)c1cnc(Nc2cc(C)nc(C)n2)cc1Nc1cccc(-c2ncn(C)n2)c1OC: 7.72
- CNC(=O)c1cnc(Nc2cc(C)c(F)cn2)cc1Nc1cccc(-c2ncn(C)n2)c1OC: 7.92
- CNC(=O)c1cnc(Nc2ccc(F)cn2)cc1Nc1cccc(C(N)=O)c1OC: 6.92
- CNC(=O)c1cnc(Nc2cc(C)c(F)cn2)cc1Nc1cccc(C(N)=O)c1OC: 7.21
- CNC(=O)c1cnc(Nc2ccc(F)cn2)cc1Nc1ccc(C(N)=O)cc1OC: 6.41
- CNC(=O)c1cnc(Nc2ccc(F)cn2)cc1Nc1cccc(C#N)c1OC: 6.24
- CNC(=O)c1cnc(Nc2cc(C)c(F)cn2)cc1Nc1cccc(C(=O)NCCN2CCOCC2)c1OC: 6.80
- CNC(=O)c1cnc(Nc2cc(C)c(F)cn2)cc1Nc1cccc(C(=O)NCC2CC2)c1OC: 6.06
- CNC(=O)c1cnc(Nc2cc(C)c(F)cn2)cc1Nc1cccc(-c2ccnn2C)c1OC: 6.52
- CCNC(=O)c1cccc(Nc2cc(Nc3cc(C)c(F)cn3)ncc2C(=O)NC)c1OC: 6.55
- CNC(=O)c1cnc(Nc2cc(C)c(F)cn2)cc1Nc1cccc(C(=O)NCc2ccccn2)c1OC: 6.74
- CNC(=O)c1cnc(Nc2cc(C)c(F)cn2)cc1Nc1cccc(C(=O)NC)c1OC: 6.85
- CNC(=O)c1ccc(Nc2cc(Nc3ccc(F)cn3)ncc2C(=O)NC)c(OC)c1: 6.28
- CNC(=O)c1cnc(Nc2cc(C)c(F)cn2)cc1Nc1cccc(-c2nc[nH]n2)c1OC: 7.64
- CNC(=O)c1cnc(Nc2ccc(C#N)cn2)cc1Nc1cccc(-c2ncn(C)n2)c1OC: 7.82
